Listing: pre-emergence activity against MATIN of selected molecules
tested on: MATIN; experiment: Herbicidal pre-emergence action, section C (Table C8); format: in vivo, Matricaria inodora; details: application rate 320 g/ha; visual grading after ca. 3 weeks
Output spec: scalar in %, unitless text.

| MOLECULE | pre-emergence activity against MATIN (%) |
| --- | --- |
| O=C1N(Cc2c(F)cccc2F)CCCC12CCCN(Cc1c(F)cccc1F)C2=O (single isomer, unassigned; (-)) [I-009] | 90 |
| O=C1N(Cc2cccc(F)c2F)CCCC12CCN(Cc1cccc(F)c1F)C2=O (racemic) | 90 |

--- query ---
Entry O=C1N(Cc2ccccc2F)CCCC12CCCN(Cc1ccccc1F)C2=O (racemic) [I-005] , pre-emergence activity against MATIN reported as 90
